The reported measurements were obtained from ChEMBL document CHEMBL4732180.

# Assay Overview: Tmax in Wistar rat brain at 3 mg/kg, po up to 5 hrs by HPLC-MS/MS analysis
# Type: ADME, organism-based
Reported Endpoint: Tmax (h)
Give bare numbers, in h.

Identify measured Tmax associated with NS(=O)(=O)c1ccc(-c2cc(C(=O)N3CC4CC4C3)nn2-c2ccc(Cl)cc2)cc1 (stereo unspecified)
2

###

# Assay Overview: Clearance in Wistar rat plasma at 3 mg/kg, iv up to 5 hrs by HPLC-MS/MS analysis
# Assay type: ADME, organism-based
Reported Endpoint: clearance (mL/min/kg)
Answers are plain numbers, in mL/min/kg.

Identify measured clearance associated with NS(=O)(=O)c1ccc(-c2cc(C(=O)N3CC4CC4C3)nn2-c2ccc(Cl)cc2)cc1 (stereo unspecified)
14.1
